From: patent US20260209316A1

% inhibition of binding: recorded values
Molecular target: T1, mucin domain-deleted Sudan GP (GPdMuc) (Sudan virus (SUDV), UniProt Q7T9D9 33-632)
T1 construct: also called Sudan GPdMuc; GP(S)dMuc
Experiment: BLI competition on Sudan GPdMuc (lower table); competitor 16F6
readout name: % inhibition of binding (%)

# binder, unit abbrev, test value
measured = [
    ("antibody 294S (antibody, V domains shown) VH: QVQLQESGPGLVKPSQTLSLTCTVSGGSISSGGYHWSWIRQHPGKGLEWIGNIYYNGRTYYNPSLKSRVTISVDTSENEFSLKLSSVTAADTAVYYCARDRRRPRIGHDYGMDVWGQGTKVIVSS VL: DIQMTQSPSSLSASVGDRVTISCRASQSISNFLNWYQQKPGQAPKLLIYTASNLQSGVPSRFSGSGSGTDFTLTISSLQPEDFATYYCQQIYNTGMYSFGQGTKLEIKR", "%", 13.3),
    ("antibody 503S (antibody, V domains shown) VH: QVQLVQSGAEVKKPGASVRVSCKASGYTFTSYYMHWVRQAPGQGLEWMGQINPSGGTTRYERKFQGRITVTRDTSTSTVYLELSSLRSEDTASYFCACLRDKVTYYDLWSGVDSVWGQGTLVTVSS VL: DIQMTQSPSSLSASVGDRVTITCRASQDISTWLAWYQQKPEKAPKSLIYAASTLETGVPSRFSGSGSGTDFTLTISSLQPEDFATYYCEQYNGFPRTFGQGTKLDIK", "%", 24.9),
    ("antibody 354S (antibody, V domains shown) VH: QVQLVQSGAEVKKPGASVKVSCKASGYSFASYYIHWVRQAPGQGLEWMGIINPSGGTTSYAQKFQGRVTMTRDTSTSTVYMELSSLGSEDTAVYYCARIVDRVTIYLNGVDNYWGQGTLVTVSS VL: EIVMTQSPATLSVSPGERVTLSCRASQSVSSNLAWFQQTPGQAPRLLIYGASTRASGVPARFSGSGSGTEFTLTISSLQSEDFAVYYCLQYNNWPPGWKYGFGQGTKLEIK", "%", 18.7),
    ("antibody 241S (antibody, V domains shown) VH: QVQLVQSGSELKKPGASVKVSCKASGYTFTSYTVNWVRQAPGQGLEWMGWINTNTGNPTYAQGFTGRFVFSSDTSVSTAYLQISDLKAEDTAMYYCARHVAYDLWSGHTVTFDHWGQGTLVTVSS VL: QSALTQPPSASGSPGQSVTISCTGTSSDVGAYNYVSWYQQHPGKAPKLIIYEVTKRPSGVPDRFSGSKSGNTASLTVSGLQAEDEADYYCSSKAGGKTYVFGTGTKVTVL", "%", 28.2),
]
